So I've got a bunch of compounds here, and I need their pIC50 values.
- target or test system: recombinant integrin α4β1 (Homo sapiens, UniProt P05556+P13612)
- Construct: purchased R&D Systems 5397-A3-050
- Sequence (P13612 34-970 limits assumed): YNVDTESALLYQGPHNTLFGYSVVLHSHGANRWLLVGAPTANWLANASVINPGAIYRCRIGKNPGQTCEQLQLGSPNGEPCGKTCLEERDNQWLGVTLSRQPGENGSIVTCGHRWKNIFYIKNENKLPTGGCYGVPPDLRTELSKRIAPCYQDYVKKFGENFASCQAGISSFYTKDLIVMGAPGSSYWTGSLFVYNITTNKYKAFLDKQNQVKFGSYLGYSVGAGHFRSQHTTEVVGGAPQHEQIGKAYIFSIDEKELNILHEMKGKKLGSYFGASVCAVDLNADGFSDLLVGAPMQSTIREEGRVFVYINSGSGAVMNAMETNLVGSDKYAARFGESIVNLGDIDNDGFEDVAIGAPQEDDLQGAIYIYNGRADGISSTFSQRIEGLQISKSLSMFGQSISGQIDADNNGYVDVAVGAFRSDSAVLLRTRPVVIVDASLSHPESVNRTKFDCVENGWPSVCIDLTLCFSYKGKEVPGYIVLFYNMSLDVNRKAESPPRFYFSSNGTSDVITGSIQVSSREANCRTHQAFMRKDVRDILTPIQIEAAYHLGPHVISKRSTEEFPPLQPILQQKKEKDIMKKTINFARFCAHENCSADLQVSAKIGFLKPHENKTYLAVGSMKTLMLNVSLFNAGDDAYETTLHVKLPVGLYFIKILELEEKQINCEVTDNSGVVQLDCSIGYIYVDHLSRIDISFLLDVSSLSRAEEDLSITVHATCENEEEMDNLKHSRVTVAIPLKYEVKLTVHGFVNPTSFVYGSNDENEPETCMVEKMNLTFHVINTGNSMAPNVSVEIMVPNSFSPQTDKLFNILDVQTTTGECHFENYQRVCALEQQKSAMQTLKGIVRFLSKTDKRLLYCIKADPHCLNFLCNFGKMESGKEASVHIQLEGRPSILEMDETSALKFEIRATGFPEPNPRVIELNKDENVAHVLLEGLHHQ
- Sequence (P05556 21-728 limits assumed): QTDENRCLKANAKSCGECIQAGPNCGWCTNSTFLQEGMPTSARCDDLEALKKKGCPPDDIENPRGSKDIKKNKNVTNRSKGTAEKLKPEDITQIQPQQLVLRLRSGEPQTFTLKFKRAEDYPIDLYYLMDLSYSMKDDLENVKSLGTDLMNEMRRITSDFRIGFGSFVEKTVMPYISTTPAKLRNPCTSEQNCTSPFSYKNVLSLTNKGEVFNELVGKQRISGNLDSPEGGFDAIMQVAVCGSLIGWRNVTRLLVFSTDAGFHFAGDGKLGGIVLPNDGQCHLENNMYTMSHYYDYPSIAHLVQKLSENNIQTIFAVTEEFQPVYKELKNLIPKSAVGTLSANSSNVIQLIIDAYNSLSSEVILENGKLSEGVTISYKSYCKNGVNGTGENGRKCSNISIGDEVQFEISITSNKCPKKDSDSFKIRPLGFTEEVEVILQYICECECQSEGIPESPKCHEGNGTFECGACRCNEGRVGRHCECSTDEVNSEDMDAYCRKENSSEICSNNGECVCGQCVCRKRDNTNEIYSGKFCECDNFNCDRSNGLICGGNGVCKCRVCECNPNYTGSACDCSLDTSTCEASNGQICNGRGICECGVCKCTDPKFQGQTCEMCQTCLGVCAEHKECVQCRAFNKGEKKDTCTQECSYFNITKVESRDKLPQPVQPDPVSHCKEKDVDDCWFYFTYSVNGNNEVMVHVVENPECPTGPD
- method notes: Integrin α4β1—VCAM-1 competition ELISA
- Assay type: binding
- condition set: read-out: ELISA a4b1 Assay IC50
Worth noting: pIC50 values are minus log10 of concentrations stated in mol/L.

Retrieve pIC50 measured for CC(C)C[C@@H]1NC(=O)[C@H](Cc2csc(-c3ccncc3)n2)NC(=O)[C@@H]2CCCN2[C@H](C(=O)NC(C)(C)C)[C@H](C)NC(=O)[C@H]([C@@H](C)O)NC(=O)[C@H](CC(=O)O)NC1=O and print it.
6.51

Report pIC50 for CC(C)C[C@@H]1NC(=O)[C@H](Cc2ccccc2)NC(=O)[C@@H]2C[C@@H](F)CN2[C@H](C(=O)NC(C)(C)C)[C@H](C)NC(=O)[C@H]([C@@H](C)O)NC(=O)[C@H](CC(=O)O)NC1=O
6.62

Supply pIC50 value. Item: CC(C)C[C@@H]1NC(=O)[C@@H]2C[C@@H](O)CN2C(=O)[C@H](Cc2ccc(O)cc2)NC(=O)[C@@H]2CCCN2[C@H](C(=O)NC(C)(C)C)[C@H](C)NC(=O)[C@H]([C@@H](C)O)NC(=O)[C@H](CC(=O)O)NC1=O
7.14

Give the reported pIC50 for this compound. CC(C)C[C@@H]1NC(=O)[C@@H](CCCN(C)C)NC(=O)[C@@H]2CCCN2[C@H](C(=O)NC(C)(C)C)[C@H](C)NC(=O)[C@H]([C@@H](C)O)NC(=O)[C@H](CC(=O)O)NC1=O
5.91

Please list pIC50 recorded for the compound CC(C)C[C@@H]1NC(=O)C2(CCCC2)NC(=O)[C@@H]2CCCN2[C@H](C(=O)NC(C)(C)C)[C@H](C)NC(=O)[C@H]([C@@H](C)O)NC(=O)[C@H](CC(=O)O)NC1=O
6.78

Retrieve pIC50 measured for COc1ccccc1-c1ccccc1C[C@@H]1NC(=O)[C@@H]2CCCN2[C@H](C(=O)NC(C)(C)C)[C@H](C)NC(=O)[C@H]([C@@H](C)O)NC(=O)[C@H](CC(=O)O)NC(=O)[C@H](CC(C)C)NC(=O)[C@H]2CCCCN2C1=O and print it.
6.92

Give pIC50 for CC(C)C[C@@H]1NC(=O)CN(C)C(=O)[C@H](Cc2csc(-c3ccccn3)n2)NC(=O)[C@@H]2CCCN2[C@H](C(=O)NC(C)(C)C)[C@H](C)NC(=O)[C@H]([C@@H](C)O)NC(=O)[C@H](CC(=O)O)NC1=O
5.58

For the compound CC(C)C[C@@H]1NC(=O)[C@H]2c3ccccc3CCN2C(=O)[C@@H]2CCCN2[C@H](C(=O)NC(C)(C)C)[C@H](C)NC(=O)[C@H]([C@@H](C)O)NC(=O)[C@H](CC(=O)O)NC1=O , give its measured pIC50 value.
7.24

Answer with reported pIC50 of CC(C)C[C@@H]1NC(=O)C[C@H](CCCCN)NC(=O)CN(Cc2ccccc2)C(=O)[C@@H]2CCCN2[C@H](C(=O)NC(C)(C)C)[C@H](C)NC(=O)[C@H]([C@@H](C)O)NC(=O)[C@H](CC(=O)O)NC1=O
4.83

Look up pIC50 of CC(C)C[C@@H]1NC(=O)[C@H]2CCCCN2C(=O)[C@H](Cc2ccccc2I)NC(=O)[C@@H]2CCCN2[C@H](C(=O)NC(C)(C)C)[C@H](C)NC(=O)[C@H]([C@@H](C)O)NC(=O)[C@H](CC(=O)O)NC1=O and report it.
7.10

Each recorded value in this set is attributed to patent US11713338B2.
